tested.on: UniProt:P03372
Sequence (P03372 whole entry): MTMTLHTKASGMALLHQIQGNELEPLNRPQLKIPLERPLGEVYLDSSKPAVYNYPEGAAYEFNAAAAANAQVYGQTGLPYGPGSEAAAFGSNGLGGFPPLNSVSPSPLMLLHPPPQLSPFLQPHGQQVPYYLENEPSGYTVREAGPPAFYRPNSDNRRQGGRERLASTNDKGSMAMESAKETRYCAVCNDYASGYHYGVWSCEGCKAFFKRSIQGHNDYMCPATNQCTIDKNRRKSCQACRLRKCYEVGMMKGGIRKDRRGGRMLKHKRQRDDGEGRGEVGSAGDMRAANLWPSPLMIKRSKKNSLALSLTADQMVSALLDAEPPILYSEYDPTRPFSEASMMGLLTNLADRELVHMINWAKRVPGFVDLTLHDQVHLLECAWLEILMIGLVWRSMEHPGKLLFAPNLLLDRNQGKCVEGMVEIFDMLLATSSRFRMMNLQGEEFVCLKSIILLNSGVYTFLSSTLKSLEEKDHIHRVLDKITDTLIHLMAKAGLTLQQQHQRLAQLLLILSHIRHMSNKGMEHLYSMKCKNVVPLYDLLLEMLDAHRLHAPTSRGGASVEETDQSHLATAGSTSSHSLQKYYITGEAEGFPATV
method.summary: Inhibition of estrogen receptor alpha mediated transcriptional activation
property.label: IC50

Task: Which measured IC50 value corresponds to Cc1ccc(N2CCc3cc(O)ccc3C2(C)c2ccc(OCCN3CCCC3)cc2)cc1 (stereo unspecified) ?
Result: 3.5 nM

----------
method.summary: Terminal half life was tested after peroral administration (5 mg/kg) in conscious rat
Type: ADME, organism-based
measurement.setup: in vivo, po
Listing: half-life of selected compounds
A complete answer gives the number followed by the unit.

Answered examples (5):
1. Oc1ccc2c(c1)CCN(c1ccccc1)C2c1ccc(OCCN2CCCCC2)cc1 (stereo not drawn) ... 3.5 h
2. CC1(c2ccc(OCCN3CCCC3)cc2)c2ccc(O)cc2CCN1c1ccc(F)cc1 (stereo not drawn) ... 8.6 h
3. CC1(c2ccc(OCCN3CCCCC3)cc2)c2ccc(O)cc2CCN1c1ccccc1 (stereo not drawn) ... 5.2 h
4. CC1(c2ccc(OCCN3CCCC3)cc2)c2ccc(O)cc2CCN1c1cccc(O)c1 (stereo not drawn) ... 5.9 h
5. Oc1ccc2c(c1)CCN(c1ccccc1)C2c1ccc(OCCN2CCCC2)cc1 (stereo not drawn) ... 3 h

Task: Which measured half-life value corresponds to Cl.O=C(c1ccc(OCCN2CCCCC2)cc1)c1c(-c2ccc(O)cc2)sc2cc(O)ccc12 [RALOXIFENE HYDROCHLORIDE] ?
Result: 1.7 h

Task: Likewise for CC1(c2ccc(OCCN3CCCCC3)cc2)c2ccc(O)cc2CCN1c1ccc(F)cc1 (stereo not drawn) ?
Result: 7.1 h

Task: Likewise for "Cl.Oc1ccc2c(c1)CC[C@H](c1ccccc1)[C@@H]2c1ccc(OCCN2CCCC2)cc1" ?
Result: 5.2 h
